Data provenance: patent US10143720B2

Tested on: dstet5 cells
test_name: Toxicity on dstet5 cells
Format: cell-based, chicken
conditions_used: dstet5 cells; concentration that reduces 50% of cell viability
experimental_readout: CC50

INPUT: Provide measured CC50 value, entry: CCC(=O)CCCCC[C@@H]1NC(=O)[C@H]2CCCCN2C(=O)[C@H]([C@@H](C)CC)NC(=O)[C@H](Cc2cn(OC)c3ccccc23)NC1=O [Apicidin]
OUTPUT: > 20 µM

====

Test system: HBV cccDNA
test_name: cccDNA-dependent DHBV pgRNA / cccDNA transcription in dstet5 cells
Assay type: cell-based
conditions_used: dstet5 system; concentration that reduces 50% of the HBV specific signal (RNA and/or HBeAg); read-out: HBV cccDNA (EC50)
experimental_readout: EC50 (nM)
Give the quantity in nM, number only.

INPUT: Provide measured EC50 value, entry: CCC(=O)CCCCC[C@@H]1NC(=O)[C@H]2CCCCN2C(=O)[C@H]([C@@H](C)CC)NC(=O)[C@H](Cc2cn(OC)c3ccccc23)NC1=O [Apicidin]
OUTPUT: 183

====

test_name: Toxicity on dstet5 cells
Format: cell-based, chicken
conditions_used: chicken; dstet5 cells; concentration that reduces 50% of cell viability
experimental_readout: CC50

Below, 2 compounds whose answers are already recorded.
CN(C)c1ccc(C(=O)NCCCCCCC(=O)NO)cc1 ... > 100 µM
O=C(CCCCCCC(=O)NO)NO [Suberoyl bis hydroxamic acid (SBHA), Suberoyl bis hydroxamic acid] ... > 40 µM

Next item in the queue.
INPUT: Provide measured CC50 value, entry: CC(/C=C/C(=O)NO)=C\[C@@H](C)C(=O)c1ccc(N(C)C)cc1
OUTPUT: > 20 µM
